What follows is a record of GI50 for HCT-15.

[
  {
    "COMPOUND": "N#CN1CCC=C(c2cc3ccccc3[nH]2)C1",
    "UNIT LABEL": "µM",
    "CENSORING OPERATOR": "=",
    "GI50": 370
  },
  {
    "COMPOUND": "N/C(=N\\O)N/N=C\\c1c(O)cc(O)cc1O",
    "UNIT LABEL": "µM",
    "CENSORING OPERATOR": "=",
    "GI50": 63.4
  },
  {
    "COMPOUND": "COc1cc(Br)cc2nc(-c3cccs3)oc12",
    "UNIT LABEL": "µM",
    "CENSORING OPERATOR": "=",
    "GI50": 16.2
  },
  {
    "COMPOUND": "CC(C)NC1(C(N)=O)CCN(Cc2ccccc2)CC1",
    "UNIT LABEL": "µM",
    "CENSORING OPERATOR": ">",
    "GI50": 100
  },
  {
    "COMPOUND": "Cc1oc2c(C)c3oc(=O)cc(C)c3cc2c1CN1C(=O)C2OCCOCCOCCOCCOCCO[C@H]2C1=O (stereo not given in full)",
    "UNIT LABEL": "µM",
    "CENSORING OPERATOR": ">",
    "GI50": 100
  },
  {
    "COMPOUND": "CC(C)(C)OC(=O)N[C@@H](Cc1ccccc1)C(=O)N1CC[C@@H](C(=O)N2[C@H]3CC4CC[C@@]3(CS2(=O)=O)C4(C)C)N1",
    "UNIT LABEL": "µM",
    "CENSORING OPERATOR": "=",
    "GI50": 56.9
  },
  {
    "COMPOUND": "COc1ccccc1N1CCN(Cn2c(=O)oc3cccnc32)CC1",
    "UNIT LABEL": "µM",
    "CENSORING OPERATOR": ">",
    "GI50": 100
  },
  {
    "COMPOUND": "COc1ccccc1[S+]([O-])Nc1ccccc1 (stereo not given)",
    "UNIT LABEL": "µM",
    "CENSORING OPERATOR": "=",
    "GI50": 22.8
  },
  {
    "COMPOUND": "COC(=O)CCC(NC(=O)C(C)NC(=O)COC1C(O)C(OC(=O)CCNc2c3ccccc3nc3cccc([N+](=O)[O-])c23)OC(OCc2ccccc2)C1NC(C)=O)C(N)=O (stereo not given)",
    "UNIT LABEL": "µM",
    "CENSORING OPERATOR": "=",
    "GI50": 3.21
  },
  {
    "COMPOUND": "NC(=S)N/N=C(/CC(=O)c1ccccc1)C(=O)Nc1ccc(Cl)c(Cl)c1",
    "UNIT LABEL": "µM",
    "CENSORING OPERATOR": "=",
    "GI50": 43.3
  },
  {
    "COMPOUND": "CC(=O)OC1CCC2C3CCc4c(C)ccc(OS(=O)(=O)c5ccccc5)c4C3CCC12C (stereo not given)",
    "UNIT LABEL": "µM",
    "CENSORING OPERATOR": "=",
    "GI50": 7.73
  },
  {
    "COMPOUND": "CC(C)[C@H](NC(=O)[C@H](N)Cc1ccc(N(CCCl)CCCl)cc1)C(=O)O",
    "UNIT LABEL": "µM",
    "CENSORING OPERATOR": ">",
    "GI50": 100
  },
  {
    "COMPOUND": "O=[N+]([O-])c1ccc2c(Nc3ccccc3-c3ccccc3Nc3c4ccccc4nc4cc([N+](=O)[O-])ccc34)c3ccccc3nc2c1",
    "UNIT LABEL": "µM",
    "CENSORING OPERATOR": "=",
    "GI50": 3.77
  },
  {
    "COMPOUND": "CC#N.O[C@@H]1CCCC[C@H]1O.O[C@@H]1CCCC[C@H]1O.[TeH2]",
    "UNIT LABEL": "µM",
    "CENSORING OPERATOR": "=",
    "GI50": 18.1
  },
  {
    "COMPOUND": "CCOC(=O)/C(=N/Nc1ccc(C)cc1)N1C(=S)N(C)N=C(C)C=C1S",
    "UNIT LABEL": "µM",
    "CENSORING OPERATOR": ">",
    "GI50": 100
  },
  {
    "COMPOUND": "COC([C@@H](OC(=O)c1ccccc1)[C@H](OC(=O)c1ccccc1)C(O)COC(=O)c1ccccc1)n1cc(C)c(=O)[nH]c1=O (stereo not given in full)",
    "UNIT LABEL": "µM",
    "CENSORING OPERATOR": "=",
    "GI50": 27
  },
  {
    "COMPOUND": "N=C(NCc1ccccc1)N/N=C\\c1ccnc2ccccc12",
    "UNIT LABEL": "µM",
    "CENSORING OPERATOR": "=",
    "GI50": 16
  },
  {
    "COMPOUND": "Cc1nc2c(n1Cc1ccc(F)cc1)C(=O)c1ccccc1C2=O",
    "UNIT LABEL": "µM",
    "CENSORING OPERATOR": "=",
    "GI50": 4.29
  },
  {
    "COMPOUND": "NC(=S)NS(=O)(=O)c1ccc(F)cc1",
    "UNIT LABEL": "µM",
    "CENSORING OPERATOR": ">",
    "GI50": 100
  },
  {
    "COMPOUND": "CC(C)(C)C1(c2ccc(C3(c4ccccc4)Oc4ccccc4S3)[nH]2)Oc2ccccc2S1 (stereo not given)",
    "UNIT LABEL": "µM",
    "CENSORING OPERATOR": ">",
    "GI50": 100
  }
]
